Assay: Single dose PK in healthy subjects (Cohorts 1, 2, S1 and S2), plasma
Type: in vivo, human
Conditions: human, plasma, iv, 112 mg, 112 mg single IV infusion, healthy subjects; read-out: Vz Median
metric: Vd (L)
Your answer is read as L, so omit the unit and give the number.

The recorded Vd for entry COC(=O)N1CCC[C@H](NS(C)(=O)=O)[C@@H]1CO[C@H]1CC[C@@H](c2ccccc2)CC1 [Compound A] equals 301

====

Experiment: Single dose PK in healthy subjects (Cohorts 1, 2, S1 and S2), plasma
Format: in vivo, human
Details: human, plasma, iv, 28 mg, 28 mg single IV infusion, healthy subjects; read-out: tmax Mean
metric: Tmax (h)
Your answer is read as h, so omit the unit and give the number.

The recorded Tmax for entry COC(=O)N1CCC[C@H](NS(C)(=O)=O)[C@@H]1CO[C@H]1CC[C@@H](c2ccccc2)CC1 equals 3

====

Experiment: Single dose PK in healthy subjects (Cohorts 1, 2, S1 and S2), plasma
Assay type: in vivo, human
Settings: human, plasma, iv, 14 mg, 14 mg single IV infusion, healthy subjects; read-out: AUCinf Geo Mean
Source text: […]
metric: AUC(0-inf)
Enter the number, and then the unit.

The recorded AUC(0-inf) for entry COC(=O)N1CCC[C@H](NS(C)(=O)=O)[C@@H]1CO[C@H]1CC[C@@H](c2ccccc2)CC1 [Compound A] equals 328 ng·h/mL

====

Assay: Single dose PK in healthy subjects (Cohorts 1, 2, S1 and S2), plasma
Assay type: in vivo, human
Settings: human, plasma, iv, 240 mg, 240 mg single IV infusion; 1 hr; read-out: Plasma Concentration of Cmpd A, Median
metric: concentration at 1 hr (ng/mL)
Your answer is read as ng/mL, so omit the unit and give the number.

The recorded concentration at 1 hr for entry COC(=O)N1CCC[C@H](NS(C)(=O)=O)[C@@H]1CO[C@H]1CC[C@@H](c2ccccc2)CC1 [Compound A] equals 318

====

Test: Single dose PK in healthy subjects (Cohorts 1, 2, S1 and S2), plasma
Assay type: in vivo, human
Settings: human, plasma, intravenous, 28 mg; 4 hr; read-out: Plasma concentration, Minimum
metric: concentration at 4 hr (ng/mL)
Your answer is read as ng/mL, so omit the unit and give the number.

The recorded concentration at 4 hr for entry COC(=O)N1CCC[C@H](NS(C)(=O)=O)[C@@H]1CO[C@H]1CC[C@@H](c2ccccc2)CC1 equals 44.4

====

Assay: Single dose PK in healthy subjects (Cohorts 1, 2, S1 and S2), plasma
Format: in vivo, human
Details: human, plasma, iv, 180 mg, 180 mg single IV infusion, healthy subjects; read-out: Ceoi Median
metric: concentration at 9 h

The recorded concentration at 9 h for entry COC(=O)N1CCC[C@H](NS(C)(=O)=O)[C@@H]1CO[C@H]1CC[C@@H](c2ccccc2)CC1 equals 316 ng/mL

====

Test: Single dose PK in healthy subjects (Cohorts 1, 2, S1 and S2), plasma
Type: in vivo, human
Conditions: human, plasma, iv, 28 mg, 28 mg single IV infusion, healthy subjects; read-out: CL Mean (converted)
metric: clearance (mL/min)
Your answer is read as mL/min, so omit the unit and give the number.

The recorded clearance for entry COC(=O)N1CCC[C@H](NS(C)(=O)=O)[C@@H]1CO[C@H]1CC[C@@H](c2ccccc2)CC1 [Compound A] equals 903

These data points were gathered from patent US20220339143A1.
